# credit: patent US9963464B2

Tested on: A2780 cells
Assay: Proliferation assay A2780
Type: cell-based
Conditions: Homo sapiens, A2780, 96 h; 4 days, crystal violet; read-out: Inhibition of A2780 cell proliferation IC50

structure.smiles.string	IC50
CSCc1cc2nc(c1)OCCCCOc1cc(F)ccc1-c1cc(ncc1F)N2	115 nM

* * *

Molecular target: CDK9/CycT1 (Homo sapiens)
Construct: Recombinant full-length His-tagged human CDK9 and CycT1; His; purchased Invitrogen PV4131; host or cells: insect cells
Sequence (P50750 whole entry): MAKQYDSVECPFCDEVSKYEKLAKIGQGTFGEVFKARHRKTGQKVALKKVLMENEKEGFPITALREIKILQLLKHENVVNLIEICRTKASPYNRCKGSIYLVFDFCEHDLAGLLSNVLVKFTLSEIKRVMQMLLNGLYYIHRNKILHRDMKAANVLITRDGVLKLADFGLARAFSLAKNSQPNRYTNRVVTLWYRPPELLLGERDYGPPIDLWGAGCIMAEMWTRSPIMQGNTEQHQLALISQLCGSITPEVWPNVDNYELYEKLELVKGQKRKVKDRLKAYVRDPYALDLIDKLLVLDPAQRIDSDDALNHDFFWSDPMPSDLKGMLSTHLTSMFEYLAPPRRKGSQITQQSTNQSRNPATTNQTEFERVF
Sequence (O60563 whole entry partner): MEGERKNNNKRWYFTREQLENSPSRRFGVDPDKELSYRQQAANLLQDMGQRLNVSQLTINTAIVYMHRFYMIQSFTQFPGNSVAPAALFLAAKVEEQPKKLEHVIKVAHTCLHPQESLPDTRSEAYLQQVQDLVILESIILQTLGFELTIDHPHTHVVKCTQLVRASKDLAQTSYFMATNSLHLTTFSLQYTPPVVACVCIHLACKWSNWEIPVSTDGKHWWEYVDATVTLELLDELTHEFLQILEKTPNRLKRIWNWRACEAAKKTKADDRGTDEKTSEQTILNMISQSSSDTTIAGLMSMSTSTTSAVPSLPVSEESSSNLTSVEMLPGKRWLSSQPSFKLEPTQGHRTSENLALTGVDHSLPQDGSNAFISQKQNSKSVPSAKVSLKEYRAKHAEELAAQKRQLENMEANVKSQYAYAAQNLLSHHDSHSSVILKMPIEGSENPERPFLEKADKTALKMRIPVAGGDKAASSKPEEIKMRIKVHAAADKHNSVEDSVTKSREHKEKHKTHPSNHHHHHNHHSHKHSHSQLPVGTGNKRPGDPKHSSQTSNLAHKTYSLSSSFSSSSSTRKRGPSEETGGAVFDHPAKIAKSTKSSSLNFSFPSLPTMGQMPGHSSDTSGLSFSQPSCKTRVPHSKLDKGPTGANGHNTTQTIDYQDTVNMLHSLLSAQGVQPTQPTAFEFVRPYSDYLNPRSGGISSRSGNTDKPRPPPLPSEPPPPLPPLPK
Experiment: CDK9/CycT1 high ATP kinase assay (TR-FRET, Method 1b)
Format: biochemical
Settings: Methods 1b and 2b; minimal values where CDK9 IC50 is at the assay limit
Quick reference for Selectivity high ATP CDK9 over high ATP CDK2: IC50 (high ATP CDK2)/IC50 (high ATP CDK9) among some molecules
endpoint.name: Selectivity high ATP CDK9 over high ATP CDK2: IC50 (high ATP CDK2)/IC50 (high ATP CDK9)

molecule	value.measured
CS(=O)(=O)Cc1cc2nc(c1)OCCCOc1cc(F)ccc1-c1cc(ncc1F)N2 [Example 8]	14.9
CN=S(C)(=O)Cc1cc2nc(c1)OCCCOc1cc(F)ccc1-c1cc(ncc1F)N2 (racemic) [Example 19]	81.7
CS(=O)(Cc1cc2nc(c1)OCCCOc1cc(F)ccc1-c1cc(ncc1F)N2)=NC(=O)OCCN (racemic) [Example 25]	6.1
CS(=N)(=O)Cc1cc2cc(c1)OCCCCOc1cc(F)ccc1-c1nc(ncc1F)N2 (racemic) [Example 1]	125.3
CS(=N)(=O)Cc1cc2nc(c1)OCCCCOc1cc(F)ccc1-c1cc(ncc1F)N2 (racemic) [Example 14]	45.3
CCOC(=O)N=S(C)(=O)Cc1cc2nc(c1)OCCCOc1cc(F)ccc1-c1cc(ncc1F)N2 (racemic) [Example 20]	13.2
CSCc1cc2cc(c1)OCCCOc1cc(F)ccc1-c1nc(ncc1F)N2 [Example 2]	149.6
CS(=N)(=O)Cc1cc2nc(c1)OCCCOc1cc(F)ccc1-c1cc(ncc1F)N2 (racemic) [Example 5]	20.8
CS(=N)(=O)Cc1cc2nc(c1)OCCOc1cc(F)ccc1-c1cc(ncc1F)N2 (racemic) [Example 11]	702
CS(=O)(Cc1cc2nc(c1)OCCCOc1cc(F)ccc1-c1cc(ncc1F)N2)=NS(=O)(=O)CCN.O=C(O)C(F)(F)F (racemic) [Example 24]	90.4
NCCS(=O)(=O)Cc1cc2nc(c1)OCCCOc1cc(F)ccc1-c1cc(ncc1F)N2 [Example 26]	13.0
CS(=O)(Cc1cc2cc(c1)OCCCOc1cc(F)ccc1-c1nc(ncc1F)N2)=NC(=O)C(F)(F)F (racemic) [Example 16]	172
